assay: chemical genetic growth profiling, strain panel (AID 1159580);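 further: tested at 20 µM; growth read once vehicle control cultures reached saturation at 30 °C; 1 = growth at the plate median or of vehicle wells; lower values mean less growth of the strain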; conditions: S. cerevisiae deletion strains, growth OD, locus YKL085W, strain MDH1 (second series), active compounds read low
Among all 5,500 compounds or so, about 2,000 (36%) were called active. Roughly 18% stayed inconclusive and do not appear here. Some of the results follow.
Below is a list of entries, each paired with its recorded normalized growth value.
Give a plain numeric answer without units written out.

Study these solved cases before continuing.
> print(dat)
                                   compound  assayresult
1  CC1(C)C2CC(=O)[C@]3(C)C(CC[C@@]4(C)[C@H](c5ccoc5)OC(=O)C5OC543)[C@@]2(C)[C@@H](O)C[C@H]1O (stereo not given in full)        0.989
2  CC1(C)C(=O)C=C[C@@]2(C)C1C=C[C@]1(C)C2CC[C@@]2(C)[C@H](c3ccoc3)OC(=O)C3OC321 (stereo not given in full)        0.985
3  CC(C)[N+](C)(CCC(C(N)=O)(c1ccccc1)c1ccccc1)C(C)C        0.995
4  CCCC(C)(COC(N)=O)COC(=O)NC(C)C (stereo not given)        0.982
5  NC(=O)c1ncn([C@@H]2O[C@H](CO)[C@@H](O)[C@H]2O)n1            1

# query: normalized growth of entry C[C@]12CCC3c4ccc(OS(=O)(=O)O)cc4CCC3C1CC[C@H]2O (stereo not given in full)
0.987

# query: normalized growth of entry "Cc1[nH]ccc2c1[nH]c1cc(=O)ccc12"
1.01

# query: normalized growth of entry "Cc1cc(OC(=O)c2c(C)cc(O)cc2O)cc(O)c1C(=O)O"
1

# query: normalized growth of entry CC(C)N(CCC(C(N)=O)(c1ccccc1)c1ccccn1)C(C)C (stereo not given)
0.988

# query: normalized growth of entry "CNC(=O)Oc1cccc2c1OC(C)(C)O2"
1

# query: normalized growth of entry "CCc1cc(C(N)=S)ccn1"
0.964

* * *

test: chemical genetic growth profiling, strain panel (AID 1159580);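 further: tested at 20 µM; growth read once vehicle control cultures reached saturation at 30 °C; 1 = growth at the plate median or of vehicle wells; lower values mean less growth of the strain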; details: S. cerevisiae deletion strains, growth OD, locus YMR001C, strain CDC5, active compounds read low
The whole screen tested about 5,500 compounds, of which about 2,000 (36%) were called active. Another 18% or so got no clear call; they are omitted. The list shows a part of the results.
Below is a list of entries, each paired with its recorded normalized growth value.
Give a plain numeric answer without units written out.

Study these solved cases before continuing.
> print(dat)
                                querysmiles  assayresult
1  CC(C)(C)C(=O)NC(=S)N/N=C\c1cc(Cl)cc(Cl)c1O        0.919
2         CCCCNC(=S)N/N=C\c1cc(Cl)cc(Cl)c1O        0.913

Alright, here's another molecule for you.
# query: normalized growth of entry "O=C(Nc1ccccc1)Nc1ccc(Cl)cc1[N+](=O)[O-]"
0.977

* * *

Below is a list of entries, each paired with its recorded normalized growth value.
assay: chemical genetic growth profiling, strain panel (AID 1159580);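 further: tested at 20 µM; growth read once vehicle control cultures reached saturation at 30 °C; 1 = growth at the plate median or of vehicle wells; lower values mean less growth of the strain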; conditions: S. cerevisiae deletion strains, growth OD, locus YER167W, strain BCK2, active compounds read low
Out of some 5,500 compounds screened, about 2,000 (36%) were called active. Roughly 18% stayed inconclusive and do not appear here. Some of the results follow.
Give a plain numeric answer without units written out.

Study these solved cases before continuing.
compound	normalized growth
CN[C@@H]1C(O)[C@@H](O[C@@H]2[C@@H](O)[C@H](O[C@H]3OC(CN)=CC[C@H]3N)[C@@H](N)C[C@H]2N)OC[C@]1(C)O (stereo partly specified)	1.02
NC(=O)NCC(N)C(=O)O (stereo unspecified)	1.02
COc1ccc2ccc(=O)oc2c1	1.01
COc1c(C(C)C)oc2cc3oc(=O)ccc3cc12	0.921
CC(=O)Oc1ccc2c(c1OC(C)=O)OCC1(O)Cc3c(cc(OC(C)=O)c(OC(C)=O)c3OC(C)=O)C21 (stereo unspecified)	1.01

# query: normalized growth of entry C[C@]12CCC3c4ccc(O)cc4CCC3C1CC[C@@H]2O (stereo partly specified)
1

# query: normalized growth of entry Oc1cc2c(cc1O)C1c3ccc(O)c(O)c3OCC1(O)C2 (stereo unspecified)
1.04

# query: normalized growth of entry "COc1cc2occc2c2oc(=O)ccc12"
0.967

These entries and their values trace back to PubChem BioAssay AID1159580.
